- Tested on: NCI-H2009
- PROTOCOL: relative viability (nuclei count vs DMSO), 5 days (fraction); higher = more cells survive
- APPLIED CONDITIONS: first compound 8 µM
PARAMETER: relative viability
Answer using only a numeral; do not append any unit.

INSERT INTO measurements (compound, parameter, measured_value) VALUES
  ('CCCCCCCCCCCC1=C(O)C(=O)C=C(O)C1=O [Embelin] + O=C(c1cc(Cc2n[nH]c(=O)c3ccccc23)ccc1F)N1CCN(C(=O)C2CC2)CC1 [Olaparib] (partner 8 µM)', 'relative viability', 0.696),
  ('CCCCCCCCCCCC1=C(O)C(=O)C=C(O)C1=O [Embelin] + Cc1nc(Nc2ncc(C(=O)Nc3c(C)cccc3Cl)s2)cc(N2CCN(CCO)CC2)n1 [Dasatinib] (partner 0.075 µM)', 'relative viability', 0.251),
  ('CCCCCCCCCCCC1=C(O)C(=O)C=C(O)C1=O [Embelin] + N=C(N)NC(=N)NCCc1ccccc1 [Phenformin] (partner 250 µM)', 'relative viability', 0.295),
  ('CCCCCCCCCCCC1=C(O)C(=O)C=C(O)C1=O [Embelin] + CC(=O)c1c(C)c2cnc(Nc3ccc(N4CCNCC4)cn3)nc2n(C2CCCC2)c1=O [Palbociclib] (partner 0.5 µM)', 'relative viability', 0.186),
  ('CCCCCCCCCCCC1=C(O)C(=O)C=C(O)C1=O [Embelin] + O=C(CCCCCCC(=O)Nc1ccccc1)NO [Vorinostat] (partner 1 µM)', 'relative viability', 0.748);

Pending compound:
# relative viability (compound: CCCCCCCCCCCC1=C(O)C(=O)C=C(O)C1=O [Embelin] + CS(=O)(=O)CCNCc1ccc(-c2ccc3ncnc(Nc4ccc(OCc5cccc(F)c5)c(Cl)c4)c3c2)o1 [Lapatinib] (partner 2 µM) ) is 0.879

---

- Tested on: NCI-H2085
- PROTOCOL: relative viability (nuclei count vs DMSO), 5 days (fraction); higher = more cells survive
- APPLIED CONDITIONS: first compound 0.01 µM
Threshold check on relative viability: strictly below 0.7 is Satisfied; on or above 0.7 is Not satisfied.

Use the examples below as a reference point.
INSERT INTO assay_data (molecule, label_class) VALUES
  ('CC(C)Oc1cc(Nc2nc(N[C@@H](C)c3ccc(F)cn3)ncc2Cl)n[nH]1 [AZ23] + Nc1nc2[nH]cc(CCc3ccc(C(=O)N[C@@H](CCC(=O)O)C(=O)O)cc3)c2c(=O)[nH]1 [Pemetrexed] (partner 0.2 µM)', 'Not satisfied'),
  ('CC(C)Oc1cc(Nc2nc(N[C@@H](C)c3ccc(F)cn3)ncc2Cl)n[nH]1 [AZ23] + COc1cccc2cc(-c3nc([C@H]4CC[C@H](C(=O)O)CC4)n4ncnc(N)c34)[nH]c12 [OSI-027] (partner 0.5 µM)', 'Satisfied'),
  ('CC(C)Oc1cc(Nc2nc(N[C@@H](C)c3ccc(F)cn3)ncc2Cl)n[nH]1 [AZ23] + CC(=O)Nc1cccc(-n2c(=O)n(C3CC3)c(=O)c3c(Nc4ccc(I)cc4F)n(C)c(=O)c(C)c32)c1 [Trametinib] (partner 0.02 µM)', 'Satisfied'),
  ('CC(C)Oc1cc(Nc2nc(N[C@@H](C)c3ccc(F)cn3)ncc2Cl)n[nH]1 [AZ23] + N=C(N)NC(=N)NCCc1ccccc1 [Phenformin] (partner 250 µM)', 'Not satisfied'),
  ('CC(C)Oc1cc(Nc2nc(N[C@@H](C)c3ccc(F)cn3)ncc2Cl)n[nH]1 [AZ23] + Nc1ncn([C@H]2C[C@H](O)[C@@H](CO)O2)c(=O)n1 [Decitabine] (partner 2 µM)', 'Satisfied');

Moving on to another molecule below.
(Q) I wonder whether CC(C)Oc1cc(Nc2nc(N[C@@H](C)c3ccc(F)cn3)ncc2Cl)n[nH]1 [AZ23] + Cc1nc(NC(=O)N2CCC[C@H]2C(N)=O)sc1-c1ccnc(C(C)(C)C(F)(F)F)c1 [Alpelisib] (partner 2 µM) has relative viability below 0.7. Can you tell?
(A) Not satisfied

---

- Tested on: SK-MES-1
- PROTOCOL: relative viability (nuclei count vs DMSO), 5 days (fraction); higher = more cells survive
- APPLIED CONDITIONS: first compound 2.53 µM
Field 'label' (enum: yes / no). Set to yes when relative viability is strictly under 0.8; else no.

(Q) Could you please tell me whether relative viability recorded for CCCCCCCCCCCC1=C(O)C(=O)C=C(O)C1=O [Embelin] + Cc1nc(NC(=O)N2CCC[C@H]2C(N)=O)sc1-c1ccnc(C(C)(C)C(F)(F)F)c1 [Alpelisib] (partner 2 µM) is less than 0.8?
(A) no

(Q) Just wondering, is relative viability of CCCCCCCCCCCC1=C(O)C(=O)C=C(O)C1=O [Embelin] + CS(=O)(=O)N1CCN(Cc2cc3nc(-c4cccc5[nH]ncc45)nc(N4CCOCC4)c3s2)CC1 [Pictilisib] (partner 1 µM) below 0.8?
(A) yes

(Q) Report whether reported relative viability is lower than 0.8 (strictly) for CCCCCCCCCCCC1=C(O)C(=O)C=C(O)C1=O [Embelin] + Cc1nc(Nc2ncc(C(=O)Nc3c(C)cccc3Cl)s2)cc(N2CCN(CCO)CC2)n1 [Dasatinib] (partner 0.075 µM)
(A) yes

(Q) For this compound, is relative viability lower than 0.8? CCCCCCCCCCCC1=C(O)C(=O)C=C(O)C1=O [Embelin] + Cc1cc(Nc2cc(N3CCN(C)CC3)nc(Sc3ccc(NC(=O)C4CC4)cc3)n2)n[nH]1 [Tozasertib] (partner 0.1 µM)
(A) no

---

Reported relative viability values are given for each entry in this list.
- System: NCI-H2023
- PROTOCOL: relative viability (nuclei count vs DMSO), 5 days (fraction); higher = more cells survive
- APPLIED CONDITIONS: first compound 0.8 µM
Kindly provide the number alone.

These recorded examples may help you get a feel for the data.
INSERT INTO measurements (compound, measured_value) VALUES
  ('CCCCCCCCCCCC1=C(O)C(=O)C=C(O)C1=O [Embelin] + C[C@]1(O)C[C@@H](c2nc(-c3ccc4ccc(-c5ccccc5)nc4c3)c3c(N)nccn32)C1 [Linsitinib] (partner 1 µM)', 0.66),
  ('CCCCCCCCCCCC1=C(O)C(=O)C=C(O)C1=O [Embelin] + CC(C)C[C@H](NC(=O)[C@H](Cc1ccccc1)NC(=O)c1cnccn1)B(O)O [Bortezomib] (partner 0.002 µM)', 1.12),
  ('CCCCCCCCCCCC1=C(O)C(=O)C=C(O)C1=O [Embelin] + Nc1nc2[nH]cc(CCc3ccc(C(=O)N[C@@H](CCC(=O)O)C(=O)O)cc3)c2c(=O)[nH]1 [Pemetrexed] (partner 0.2 µM)', 0.244);

Note: attention shifts to another entry.
The reported relative viability of the compound CCCCCCCCCCCC1=C(O)C(=O)C=C(O)C1=O [Embelin] + Cc1nc(NC(=O)N2CCC[C@H]2C(N)=O)sc1-c1ccnc(C(C)(C)C(F)(F)F)c1 [Alpelisib] (partner 2 µM) was 0.532

---

// values below are reported relative viability
- System: NCI-H1755
- PROTOCOL: relative viability (nuclei count vs DMSO), 5 days (fraction); higher = more cells survive
- APPLIED CONDITIONS: first compound 0.1265 µM
Respond numerically, and do not add a unit to the figure.

INSERT INTO results (compound, measurement_target, measured_value) VALUES
  ('COc1cc(N2CCC(C(N)=O)CC2)ccc1Nc1nc(N)c(Cl)c(Nc2ccccc2S(=O)(=O)C(C)C)n1 [HG-5-88-01] + O=C(c1cc(Cc2n[nH]c(=O)c3ccccc23)ccc1F)N1CCN(C(=O)C2CC2)CC1 [Olaparib] (partner 8 µM)', 'NCI-H1755', 0.869);

# evaluate next
Input Clc1ccc(Nc2nnc(Cc3ccncc3)c3ccccc23)cc1 [Vatalanib] + COc1cccc2cc(-c3nc([C@H]4CC[C@H](C(=O)O)CC4)n4ncnc(N)c34)[nH]c12 [OSI-027] (partner 0.5 µM) . Output relative viability: 0.747

---

Measured relative viability, listed per entry for reference.
- System: NCI-H460
- PROTOCOL: relative viability (nuclei count vs DMSO), 5 days (fraction); higher = more cells survive
- APPLIED CONDITIONS: first compound 0.01 µM
Number only, please.

INSERT INTO assay_data (molecule, measured_value) VALUES
  ('CC(C)Oc1cc(Nc2nc(N[C@@H](C)c3ccc(F)cn3)ncc2Cl)n[nH]1 [AZ23] + NC(=O)Nc1cc(-c2cccc(F)c2)sc1C(=O)N[C@H]1CCCNC1 [AZD7762] (partner 0.2 µM)', 0.722),
  ('CC(C)Oc1cc(Nc2nc(N[C@@H](C)c3ccc(F)cn3)ncc2Cl)n[nH]1 [AZ23] + N=C(N)NC(=N)NCCc1ccccc1 [Phenformin] (partner 250 µM)', 0.335),
  ('CC(C)Oc1cc(Nc2nc(N[C@@H](C)c3ccc(F)cn3)ncc2Cl)n[nH]1 [AZ23] + O=C(c1cc(Cc2n[nH]c(=O)c3ccccc23)ccc1F)N1CCN(C(=O)C2CC2)CC1 [Olaparib] (partner 8 µM)', 0.24);

So for CC(C)Oc1cc(Nc2nc(N[C@@H](C)c3ccc(F)cn3)ncc2Cl)n[nH]1 [AZ23] + CCNC(=O)c1noc(-c2cc(C(C)C)c(O)cc2O)c1-c1ccc(CN2CCOCC2)cc1 [Luminespib] (partner 0.01 µM) , the logged relative viability turned out to be 0.0317
